collision cross section (N2) for assorted molecules
Details: [M+H]+; instrument: TW; calibrated with polyalanine and drug standards
Answer in Å², number only, no unit symbol.

>>> numeric_value("O=c1c2cc(O)c(O)cc2oc2cc(O)c([C@@H]3O[C@H](CO)[C@@H](O)[C@H](O)[C@H]3O)c(O)c12 [MANGIFERIN]")
189.8
>>> numeric_value("CCC(C)n1ncn(-c2ccc(N3CCN(c4ccc(OCC5COC(Cn6cncn6)(c6ccc(Cl)cc6Cl)O5)cc4)CC3)cc2)c1=O (stereo unspecified) [ITRACONAZOLE]")
248.8
>>> numeric_value("O=c1cccc2n1C[C@@H]1CNC[C@H]2C1 [CYTISINE]")
137.9
>>> numeric_value("COc1cc(/C=C/C(=O)CC(=O)/C=C/c2ccc(O)c(OC)c2)ccc1O [CURCUMIN]")
198.5
>>> numeric_value("CC1(C)C2CC(=O)[C@]3(C)C(CC[C@@]4(C)[C@H](c5ccoc5)OC(=O)C5OC543)[C@@]2(C)[C@@H](O)C[C@H]1O (stereo partly specified) [1,3-DIDEACETYL-7-DEACETOXY-7-OXOKHIVORIN]")
200.2

Return reported collision cross section (N2). Input molecule: Cc1cccc2c3c(ccc12)C1=C(C(=O)C3=O)[C@@H](C)CO1 [DIHYDROTANSHINONE I]
159.4

Return reported collision cross section (N2). Input molecule: C=C(C)[C@H]1COc2cc3oc(=O)ccc3cc2O1 [OBLIQUIN]
150.1

Return reported collision cross section (N2). Input molecule: COc1cccc2c1C(=O)c1c(O)c3c(c(O)c1C2=O)C[C@@](O)(C(C)=O)C[C@@H]3O[C@H]1C[C@H](N)[C@H](O)[C@H](C)O1 [DAUNORUBICIN]
222.9

Return reported collision cross section (N2). Input molecule: CCCc1cc(=O)[nH]c(=S)[nH]1 [PROPYLTHIOURACIL]
134.7

Return reported collision cross section (N2). Input molecule: CCOc1ccc(NC(C)=O)cc1 [PHENACETIN]
140.5

Return reported collision cross section (N2). Input molecule: COC(=O)C[C@H]1C(C)(C)C2(O)OC34CC2C(=O)[C@]1(C)C3CC[C@]1(C)C4=CC(=O)O[C@H]1c1ccoc1 (stereo partly drawn) [8beta-HYDROXYCARAPIN, 3,8-HEMIACETAL]
208.8

Return reported collision cross section (N2). Input molecule: N[C@H]1C(O)O[C@H](CO)[C@@H](O)[C@@H]1O (stereo partly specified) [GLUCOSAMINE]
145.2

Return reported collision cross section (N2). Input molecule: C[C@H](CCC(=O)O)[C@H]1CC[C@H]2[C@@H]3CC[C@@H]4C[C@H](O)CC[C@]4(C)[C@H]3CC[C@]12C [LITHOCHOLIC ACID]
210.8

Return reported collision cross section (N2). Input molecule: CN(C(=O)CN(CCO)CC(=O)N(C)C(C)(C)Cc1ccccc1)C(C)(C)Cc1ccccc1 [OXETHAZAINE]
213.7

Return reported collision cross section (N2). Input molecule: C=C(C)[C@H]1Cc2c(ccc3c2O[C@@H]2COc4cc(OC)c(OC)cc4[C@@H]2C3=O)O1 [ROTENONE]
193.2

Return reported collision cross section (N2). Input molecule: NS(=O)(=O)c1cc2c(cc1C(F)(F)F)NC(Cc1ccccc1)NS2(=O)=O (stereo unspecified) [BENDROFLUMETHIAZIDE]
188.6

Return reported collision cross section (N2). Input molecule: C=CCSSSCC=C [DIALLYL TRISULFIDE]
126.9

Return reported collision cross section (N2). Input molecule: COc1ccc(-c2coc3cc(OC)ccc3c2=O)cc1 [7,4'-DIMETHOXYISOFLAVONE]
160.3

Return reported collision cross section (N2). Input molecule: Cc1ccc(S(=O)(=O)NC(=O)NN2CCCCCC2)cc1 [TOLAZAMIDE]
173.3

Return reported collision cross section (N2). Input molecule: COc1ccc(-c2cc(=O)c3c(OC)c(OC)c(OC)c(OC)c3o2)cc1OC [NOBILETIN]
191.3

Return reported collision cross section (N2). Input molecule: Nc1ncnc2c1ncn2[C@@H]1O[C@H](COP(=O)(O)O)[C@@H](O)[C@H]1O [ADENOSINE PHOSPHATE]
167.6

Return reported collision cross section (N2). Input molecule: CC(=O)O[C@H]1C[C@@H](O)C(C)(C)C2C[C@@H](OC(C)=O)[C@]3(C)C(CC[C@@]4(C)[C@H](c5ccoc5)OC(=O)C5OC543)[C@]21C (stereo partly specified) [3-DEACETYLKHIVORIN]
215.9

Return reported collision cross section (N2). Input molecule: COc1cc(-c2coc3cc(OCc4ccccc4)c(OC)c(O)c3c2=O)cc(OCc2ccccc2)c1OC [IRIGENIN, DIBENZYL ETHER]
234.1

Return reported collision cross section (N2). Input molecule: CC1(C)C=Cc2cc3ccc(=O)oc3cc2O1 [XANTHYLETIN]
148.3

Return reported collision cross section (N2). Input molecule: CCC(C(N)=O)c1ccccc1 (stereo unspecified) [FENBUTYRAMIDE]
135.8

Return reported collision cross section (N2). Input molecule: O=C(O[C@@H]1Cc2c(O)cc(O)cc2O[C@@H]1c1ccc(O)c(O)c1)c1cc(O)c(O)c(O)c1 [EPICATECHIN MONOGALLATE]
202.9

* * *

collision cross section (N2) for assorted compounds
Settings: [M+H]+; instrument: DT; single field, calibrated with Agilent tune mix (Agilent)
Answer in Å², number only, no unit symbol.

Consider the reported collision cross section (N2) for these compounds:
>>> numeric_value("CCCCCCCCCC/C=C\\CCCCCCCCCC(=O)O[C@H](COC(=O)CCCCCCCCCCCCCCC)COP(=O)(O)OC[C@H](N)C(=O)O [PS(38:1)]")
292.9
>>> numeric_value("CCCCCCCCCC/C=C\\CCCCCCCCCC(=O)O[C@H](COC(=O)CCCCCCCCCCC)COP(=O)(O)OCCN [PE(34:1)]")
274.7
>>> numeric_value("CCCCC/C=C\\C/C=C\\CCCCCCCCCCCC(=O)O[C@H](COC(=O)CCCCCCC/C=C\\C/C=C\\CCCCC)COP(=O)(O)OCCN [PE(40:4)]")
288.1

Proceeding to the next compound to report its collision cross section (N2).
Return reported collision cross section (N2). Input compound: CCCCCC/C=C\CCCCCCCCCC(=O)O[C@H](CO)COP(=O)(O)OCCN [LPE(18:1)]
215.8

* * *

collision cross section (N2) for assorted molecules
Details: [M+Na]+; instrument: DT; stepped-field
Answer in Å², number only, no unit symbol.

Consider the reported collision cross section (N2) for these molecules:
>>> numeric_value("CCCC/C=C\\CCCCCCCC(=O)OC[C@H](COP(=O)(O)OCCN)OC(=O)CCCCCCCCC/C=C\\C/C=C\\CCCCC")
276.1
>>> numeric_value("CCCCC/C=C\\C/C=C\\CCCCCCCC(=O)O[C@H](COCCCCCCCCCCCCCCCCCC)COP(=O)(O)OCCN")
287.3

Proceeding to the next molecule to report its collision cross section (N2).
Return reported collision cross section (N2). Input molecule: `CC/C=C\C/C=C\C/C=C\C/C=C\C/C=C\CCCC(=O)OC[C@H](COP(=O)(O)OCCN)OC(=O)CCC/C=C\C/C=C\C/C=C\C/C=C\CCCCC`
286.6

* * *

collision cross section (N2) for assorted molecules
Conditions: [M+HCOO]-; instrument: DT; single field, calibrated with Agilent tune mix (Agilent)
Answer in Å², number only, no unit symbol.

Consider the reported collision cross section (N2) for these molecules:
>>> numeric_value("CCCCCCCC/C=C\\C/C=C\\C/C=C\\CCCC(=O)OC[C@H](COP(=O)([O-])OCC[N+](C)(C)C)OC(=O)CCCCCCCCCCCCC")
283.5
>>> numeric_value("CCCCC/C=C\\C/C=C\\C/C=C\\CCCCC(=O)OC[C@H](COP(=O)([O-])OCC[N+](C)(C)C)OC(=O)CCCCCCCCC/C=C\\CCCCCCCC")
294.4
>>> numeric_value("CCCCCCCCCCCCCCCC(=O)N[C@@H](CO)[C@H](O)CCCCCCCCCCCCCCC")
251.8
>>> numeric_value("CCCCCCCCCCCCC=CC[C@@H](O)[C@H](CO)NC(=O)CCCCCCCCCCCCCCC")
250.4
>>> numeric_value("CCCCCCCCCCCCCCCCC(=O)OC[C@@H](O)COP(=O)([O-])OCC[N+](C)(C)C")
237.7
>>> numeric_value("CCCCCCCCCCCCC=CC[C@@H](O)[C@H](CO)NC(=O)CCCCCCCCCCCCCCCCC")
257.6

Proceeding to the next molecule to report its collision cross section (N2).
Return reported collision cross section (N2). Input molecule: `CCCCCCCCCCCCC=CC[C@@H](O)[C@H](COP(=O)([O-])OCC[N+](C)(C)C)NC(=O)CC=CCC=CCCCCCCCCCCCCCCCCC`
299.5
